# Read-out: Plasminogen activator inhibitor-1 (PAI1), SERPINE1 (gene 5054)
# assay.protocol: BSK_hDFCGF_PAI1: BioMAP Diversity Plus: hDFCGF Assay for Plasminogen activator inhibitor-1 (PAI1) Biomarker Activity (AID 2283066)
# condition.info: primary human foreskin fibroblasts; actives raise or lower the signal
Active and inactive are the calls of the source. The calls were made as follows: active = hit-call score of the fitted dose curve at least 0.9, where 1 is the maximum; inactive = score below 0.9.
Result category, one only: true (1) for active, false (0) for inactive

Would you mind telling me which call this test gave "CCN(CC)c1ccc(C=O)cc1" ? false (0)

Would you mind telling me which call this test gave "CCOC(C=C(C)CCC=C(C)C)OCC" ? true (1)

Would you mind telling me which call this test gave CC1=CC2C3C=CC(C3)C2C1C (centres undefined) ? false (0)

Would you mind telling me which call this test gave "CCN(CC)c1ccc(N=Nc2ccccc2)cc1" ? false (0)

Would you mind telling me which call this test gave "Cc1ccc(O)c(-n2nc3ccccc3n2)c1" ? false (0)

Would you mind telling me which call this test gave "OCC(F)(F)C(F)(F)C(F)(F)CO" ? false (0)

Would you mind telling me which call this test gave "NC(=O)C(F)(F)C(F)(F)C(F)(F)C(F)(F)C(F)(F)C(F)(F)C(F)(F)F" ? false (0)

Would you mind telling me which call this test gave OCC(O)CC(F)(F)C(F)(F)C(F)(F)C(F)(F)F (centres undefined) ? false (0)

Would you mind telling me which call this test gave "NCC(F)(F)C(F)(F)C(F)(F)C(F)(F)C(F)(F)C(F)(F)C(F)(F)C(F)(F)F" ? false (0)

Would you mind telling me which call this test gave "O=C1C=CC(=O)N1c1ccc(Cc2ccc(N3C(=O)C=CC3=O)cc2)cc1" ? true (1)

Would you mind telling me which call this test gave FC(F)(F)C(F)(F)C(F)(F)CC1CO1 (centres undefined) ? false (0)

Would you mind telling me which call this test gave "O=C(Cl)C(F)(F)C(F)(F)C(F)(F)C(F)(F)C(F)(F)C(F)(F)C(F)(F)F" ? false (0)

Would you mind telling me which call this test gave "O=C(O)CCC(F)(F)C(F)(F)C(F)(F)F" ? false (0)

Would you mind telling me which call this test gave "C=CC(=O)OCCC(F)(F)C(F)(F)C(F)(F)C(F)(F)F" ? false (0)
